target: ~100 representative kinases (Homo sapiens, UniProt P15056); construct: Recombinant protein kinase domains with a concentration of 2 μM; experiment: DSF 100 kinase selectivity screen; format: binding; details: Protein BRAF; average of three replicates;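 further: compound tested at 20 µM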
Sequence (P15056 whole entry, the tested form may be a part): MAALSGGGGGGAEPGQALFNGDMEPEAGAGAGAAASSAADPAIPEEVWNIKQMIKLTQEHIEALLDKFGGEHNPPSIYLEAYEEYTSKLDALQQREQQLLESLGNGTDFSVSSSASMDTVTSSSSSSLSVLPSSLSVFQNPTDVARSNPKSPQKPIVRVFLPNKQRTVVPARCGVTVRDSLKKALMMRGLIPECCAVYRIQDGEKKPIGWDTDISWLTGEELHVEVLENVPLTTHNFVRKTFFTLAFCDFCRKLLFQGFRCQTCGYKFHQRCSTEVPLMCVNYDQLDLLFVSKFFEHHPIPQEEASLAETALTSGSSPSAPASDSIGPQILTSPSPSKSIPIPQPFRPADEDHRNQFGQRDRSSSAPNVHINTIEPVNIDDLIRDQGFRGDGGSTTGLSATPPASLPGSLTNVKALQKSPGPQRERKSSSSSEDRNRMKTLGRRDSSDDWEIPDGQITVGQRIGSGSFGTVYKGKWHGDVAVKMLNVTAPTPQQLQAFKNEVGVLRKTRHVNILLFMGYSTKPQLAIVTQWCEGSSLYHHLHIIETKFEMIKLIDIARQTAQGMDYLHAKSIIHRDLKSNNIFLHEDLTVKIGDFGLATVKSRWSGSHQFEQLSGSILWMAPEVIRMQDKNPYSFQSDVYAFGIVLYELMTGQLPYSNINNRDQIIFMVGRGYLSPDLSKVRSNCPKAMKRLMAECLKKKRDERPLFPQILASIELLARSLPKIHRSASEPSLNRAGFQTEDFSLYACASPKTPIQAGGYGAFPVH

compound: COc1cc2c(Oc3ccc(NC(=O)C4(C(=O)Nc5ccc(F)cc5)CC4)cc3F)ccnc2cc1OCCCN1CCOCC1 [Foretinib, reference compound]
dTm (K): 6.96

compound: O=C(Nc1ccc(Cl)cc1)C1(C(=O)Nc2cccc(-c3c[nH]c4ncnc(N5CCOCC5)c34)c2)CC1
dTm (K): 10.34

compound: CCNc1nc(Nc2cc(F)c(C(=O)N3CCOCC3)cc2OC)ncc1C(F)(F)F
dTm (K): 1.48

compound: Cn1cc(-c2c[nH]c3ncnc(N4CCOCC4)c23)cc1C#N
dTm (K): 2.10

compound: C[C@@H]1CN(c2cc(-c3n[nH]c4ccc(OC5(C)CC5)cc34)ncn2)C[C@H](C)O1
dTm (K): 0.50

compound: CCSc1nc(NC)c2c(-c3cccc(NC(=O)Nc4cc(C(C)(C)C)nn4-c4ccc(C)cc4)c3)c[nH]c2n1
dTm (K): 0.90

compound: COc1cc(NC(=O)C2(C(=O)Nc3cccc(-c4c[nH]c5ncnc(N6CCOCC6)c45)c3)CC2)ccc1F
dTm (K): 10.93

compound: O=C(Nc1cccc(-c2c[nH]c3ncnc(N4CCOCC4)c23)c1)c1cccn(-c2ccc(F)cc2)c1=O
dTm (K): 8.03

compound: O=C(Nc1cccc(-c2c[nH]c3ncnc(N4CCOCC4)c23)c1)C1(C(=O)Nc2ccc(F)cc2F)CC1
dTm (K): 9.00

* * *

target: ~100 representative kinases (Homo sapiens, UniProt O75385); construct: Recombinant protein kinase domains with a concentration of 2 μM; test: DSF 100 kinase selectivity screen; type: binding; conditions: Protein ULK1; DSF; average of three replicates;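 further: compound tested at 20 µM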
Sequence (O75385 whole entry, the tested form may be a part): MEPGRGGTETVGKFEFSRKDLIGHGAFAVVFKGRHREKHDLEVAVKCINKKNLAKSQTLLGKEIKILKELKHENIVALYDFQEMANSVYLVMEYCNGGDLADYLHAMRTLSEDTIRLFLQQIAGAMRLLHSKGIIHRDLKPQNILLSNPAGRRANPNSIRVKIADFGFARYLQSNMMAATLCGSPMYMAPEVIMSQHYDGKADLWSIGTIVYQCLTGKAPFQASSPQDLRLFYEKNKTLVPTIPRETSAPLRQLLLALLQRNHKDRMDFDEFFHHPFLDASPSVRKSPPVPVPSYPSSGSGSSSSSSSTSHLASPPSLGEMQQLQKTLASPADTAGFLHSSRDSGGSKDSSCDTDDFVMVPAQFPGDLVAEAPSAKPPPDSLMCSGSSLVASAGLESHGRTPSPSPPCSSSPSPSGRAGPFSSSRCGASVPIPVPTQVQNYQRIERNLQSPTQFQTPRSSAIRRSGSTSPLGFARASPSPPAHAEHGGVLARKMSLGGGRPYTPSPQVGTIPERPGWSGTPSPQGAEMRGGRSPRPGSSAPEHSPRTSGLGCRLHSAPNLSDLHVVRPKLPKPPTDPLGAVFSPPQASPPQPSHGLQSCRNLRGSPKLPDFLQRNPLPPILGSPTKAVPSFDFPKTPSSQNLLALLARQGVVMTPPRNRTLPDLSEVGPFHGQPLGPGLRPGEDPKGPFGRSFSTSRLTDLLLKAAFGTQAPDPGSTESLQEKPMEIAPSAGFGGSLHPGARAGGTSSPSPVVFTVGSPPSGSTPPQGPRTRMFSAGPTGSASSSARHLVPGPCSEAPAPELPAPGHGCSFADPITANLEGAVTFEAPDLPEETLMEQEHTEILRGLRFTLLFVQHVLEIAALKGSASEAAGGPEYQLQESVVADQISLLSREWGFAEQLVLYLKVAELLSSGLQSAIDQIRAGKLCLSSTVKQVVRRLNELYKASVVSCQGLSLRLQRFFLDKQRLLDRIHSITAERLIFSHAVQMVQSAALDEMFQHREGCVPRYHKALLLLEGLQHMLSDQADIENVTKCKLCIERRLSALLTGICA

compound: O=C(Nc1cc(F)cc(Br)c1)C1(C(=O)Nc2cccc(-c3c[nH]c4ncnc(N5CCOCC5)c34)c2)CC1 [Compound 27]
target_of_assay: ~100 representative kinases (Homo sapiens, UniProt O75385)
reading_unit: K
dTm: 6.71
--
compound: CCSc1nc(NC)c2c(-c3cccc(NC(=O)Nc4cc(C(C)(C)C)nn4-c4ccc(C)cc4)c3)c[nH]c2n1 [Compound 32]
target_of_assay: ~100 representative kinases (Homo sapiens, UniProt O75385)
reading_unit: K
dTm: 0.62
--
compound: O=C(Nc1cccc(-c2c[nH]c3ncnc(N4CCOCC4)c23)c1)C1(C(=O)Nc2ccc(F)c(Br)c2F)CC1 [Compound 26]
target_of_assay: ~100 representative kinases (Homo sapiens, UniProt O75385)
reading_unit: K
dTm: 8.48

* * *

Target: ~100 representative kinases (Homo sapiens)
Construct: Recombinant protein kinase domains with a concentration of 2 μM
Sequence (O14936 1-926): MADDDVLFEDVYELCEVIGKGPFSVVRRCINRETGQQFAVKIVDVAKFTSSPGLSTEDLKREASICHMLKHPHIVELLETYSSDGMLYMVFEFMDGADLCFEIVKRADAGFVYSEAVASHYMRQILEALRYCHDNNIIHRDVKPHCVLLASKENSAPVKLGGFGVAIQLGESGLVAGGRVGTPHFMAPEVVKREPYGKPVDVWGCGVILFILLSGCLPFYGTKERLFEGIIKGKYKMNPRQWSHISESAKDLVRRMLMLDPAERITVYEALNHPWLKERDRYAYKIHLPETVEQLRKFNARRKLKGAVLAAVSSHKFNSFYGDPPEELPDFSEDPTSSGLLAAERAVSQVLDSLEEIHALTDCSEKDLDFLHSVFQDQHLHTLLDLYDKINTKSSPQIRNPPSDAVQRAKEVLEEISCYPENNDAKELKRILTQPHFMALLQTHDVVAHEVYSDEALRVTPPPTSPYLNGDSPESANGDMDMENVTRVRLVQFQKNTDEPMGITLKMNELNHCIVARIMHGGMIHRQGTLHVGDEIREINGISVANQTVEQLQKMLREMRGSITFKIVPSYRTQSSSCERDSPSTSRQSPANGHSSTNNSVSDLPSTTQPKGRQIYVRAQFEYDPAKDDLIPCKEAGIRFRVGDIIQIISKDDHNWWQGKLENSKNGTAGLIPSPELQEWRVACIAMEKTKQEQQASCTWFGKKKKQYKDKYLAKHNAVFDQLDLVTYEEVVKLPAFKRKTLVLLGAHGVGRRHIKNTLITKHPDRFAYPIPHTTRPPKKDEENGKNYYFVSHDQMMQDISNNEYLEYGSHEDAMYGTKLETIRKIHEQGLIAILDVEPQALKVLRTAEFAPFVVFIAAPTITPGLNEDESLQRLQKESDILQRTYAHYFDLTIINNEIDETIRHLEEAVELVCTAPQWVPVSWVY
Test: DSF 100 kinase selectivity screen;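 further: compound tested at 20 µM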
Type: binding
Details: Protein CASK; average of three replicates
Recorded dTm for the following molecules
assay_endpoint: dTm (K)

molecule: Cc1ccc(C(=O)Nc2ccc(CN3CCN(C)CC3)c(C(F)(F)F)c2)cc1C#Cc1c[nH]c2ncnc(N3CCOCC3)c12 [Compound 1]
target_of_assay: ~100 representative kinases (Homo sapiens)
observed: 1.18

molecule: O=C(Nc1cccc(-c2c[nH]c3ncnc(N4CCOCC4)c23)c1)C1(C(=O)Nc2ccc(F)c(Br)c2)CC1 [Compound 19]
target_of_assay: ~100 representative kinases (Homo sapiens)
observed: 1.26

molecule: O=C(Nc1ccc(F)cc1)C1(C(=O)Nc2cccc(-c3c[nH]c4ncnc(N5CCOCC5)c34)c2)CC1 [Compound 2]
target_of_assay: ~100 representative kinases (Homo sapiens)
observed: 0.30

molecule: CCSc1nc(NC)c2c(-c3cccc(NC(=O)Nc4cc(C(C)(C)C)nn4-c4ccc(C)cc4)c3)c[nH]c2n1 [Compound 32]
target_of_assay: ~100 representative kinases (Homo sapiens)
observed: -0.26

molecule: CC(C)(C)c1cccc(NC(=O)C2(C(=O)Nc3cccc(-c4c[nH]c5ncnc(N6CCOCC6)c45)c3)CC2)c1 [Compound 22]
target_of_assay: ~100 representative kinases (Homo sapiens)
observed: 1.08

molecule: COc1cc(NC(=O)C2(C(=O)Nc3cccc(-c4c[nH]c5ncnc(N6CCOCC6)c45)c3)CC2)ccc1F [Compound 21]
target_of_assay: ~100 representative kinases (Homo sapiens)
observed: 0.09

molecule: COc1cc2c(Oc3ccc(NC(=O)C4(C(=O)Nc5ccc(F)cc5)CC4)cc3F)ccnc2cc1OCCCN1CCOCC1 [Foretinib, reference compound]
target_of_assay: ~100 representative kinases (Homo sapiens)
observed: 0.53

molecule: CNC(=O)c1cc(Oc2ccc(NC(=O)Nc3cc(C(C)(C)C)nn3-c3ccc4ncccc4c3)c(F)c2)ccn1 [Rebastinib, reference compound]
target_of_assay: ~100 representative kinases (Homo sapiens)
observed: -12.03

molecule: Cn1cc(-c2c[nH]c3ncnc(N4CCOCC4)c23)cc1C#N [PFE-360]
target_of_assay: ~100 representative kinases (Homo sapiens)
observed: 0.12

molecule: C[C@@H]1CN(c2cc(-c3n[nH]c4ccc(OC5(C)CC5)cc34)ncn2)C[C@H](C)O1 [MLi2]
target_of_assay: ~100 representative kinases (Homo sapiens)
observed: 0.19

Sourced from paper PMC12136037
